# Measurement notes: Cytotoxicity against human HK-2 cells assessed as inhibition of cell viability incubated for 24 hrs by MTT assay
# Format: toxicity, cell-based
In this section we review reported IC50 at 24 h values for a set of compounds.

Compound	IC50 at 24 h
COC(=O)[C@@]1(C)CC[C@]2(C)CC[C@]3(C)C(=CC(=O)[C@@H]4[C@@]5(C)CC[C@H](OCc6cn(C7O[C@H](COC(C)=O)[C@H](OC(C)=O)[C@H](OC(C)=O)[C@H]7OC(C)=O)nn6)C(C)(C)C5CC[C@]43C)[C@H]2C1 (some centres undefined)	42.2 µM

Recorded IC50 at 24 h for CC(=O)OC[C@@H]1OC(n2cc(COC(=O)[C@@]3(C)CC[C@]4(C)CC[C@]5(C)C(=CC(=O)[C@@H]6[C@@]7(C)CC[C@H](OC(=O)CCc8ccccc8)C(C)(C)C7CC[C@]65C)[C@H]4C3)nn2)[C@H](OC(C)=O)[C@H](OC(C)=O)[C@@H]1OC(C)=O (some centres undefined) , please?
> 800 µM

Recorded IC50 at 24 h for COC(=O)[C@@]1(C)CC[C@]2(C)CC[C@]3(C)C(=CC(=O)[C@@H]4[C@@]5(C)CC[C@H](OCc6cn(C7O[C@H](COC(C)=O)[C@@H](OC(C)=O)[C@H]7OC(C)=O)nn6)C(C)(C)C5CC[C@]43C)[C@H]2C1 (some centres undefined) , please?
59.7 µM

Recorded IC50 at 24 h for CC(=O)OC[C@@H]1OC(n2cc(COC(=O)[C@@]3(C)CC[C@]4(C)CC[C@]5(C)C(=CC(=O)[C@@H]6[C@@]7(C)CC[C@H](OC(=O)CCc8ccccc8)C(C)(C)C7CC[C@]65C)[C@H]4C3)nn2)[C@@H](OC(C)=O)[C@H](OC(C)=O)[C@H]1OC(C)=O (some centres undefined) , please?
398 µM

###

# Measurement notes: Cytotoxicity against rat H9c2 cells assessed as inhibition of cell viability incubated for 24 hrs by MTT assay
# Type: toxicity, cell-based
In this section we review reported IC50 at 24 h values for a set of molecules.
Lab book: enter the figure in µM, no units written.

Molecule	IC50 at 24 h, µM
CC(=O)OC[C@@H]1OC(n2cc(COC(=O)[C@@]3(C)CC[C@]4(C)CC[C@]5(C)C(=CC(=O)[C@@H]6[C@@]7(C)CC[C@H](OC(=O)CCc8ccccc8)C(C)(C)C7CC[C@]65C)[C@H]4C3)nn2)[C@@H](OC(C)=O)[C@H](OC(C)=O)[C@H]1OC(C)=O (some centres not stated)	294

Recorded IC50 at 24 h for CC(=O)OC[C@@H]1OC(n2cc(COC(=O)[C@@]3(C)CC[C@]4(C)CC[C@]5(C)C(=CC(=O)[C@@H]6[C@@]7(C)CC[C@H](OC(=O)CCc8ccccc8)C(C)(C)C7CC[C@]65C)[C@H]4C3)nn2)[C@@H](OC(C)=O)[C@H]1OC(C)=O (some centres not stated) , please?
330

###

# Measurement notes: Cytotoxicity against rat H9c2 cells assessed as inhibition of cell viability incubated for 24 hrs by MTT assay
# Assay type: toxicity, cell-based
In this section we review reported IC50 at 24 h values for a set of compounds.
Lab book: enter the figure in µM, no units written.

Compound	IC50 at 24 h / µM
CC(=O)OC[C@@H]1OC(n2cc(COC(=O)[C@@]3(C)CC[C@]4(C)CC[C@]5(C)C(=CC(=O)[C@@H]6[C@@]7(C)CC[C@H](OC(=O)CCc8ccccc8)C(C)(C)C7CC[C@]65C)[C@H]4C3)nn2)[C@@H](OC(C)=O)[C@H](OC(C)=O)[C@@H]1OC(C)=O (stereo partly specified)	114

Recorded IC50 at 24 h for CC1(C)[C@@H](O[C@H]2O[C@H](C(=O)O)[C@@H](O)[C@H](O)[C@H]2O[C@@H]2O[C@H](C(=O)O)[C@@H](O)[C@H](O)[C@H]2O)CC[C@]2(C)[C@H]3C(=O)C=C4[C@@H]5C[C@@](C)(C(=O)O)CC[C@]5(C)CC[C@@]4(C)[C@]3(C)CC[C@@H]12 [GLYCYRRHIZIN] , please?
102

Recorded IC50 at 24 h for COC(=O)[C@@]1(C)CC[C@]2(C)CC[C@]3(C)C(=CC(=O)[C@@H]4[C@@]5(C)CC[C@H](OCc6cn(C7O[C@H](COC(C)=O)[C@@H](OC(C)=O)[C@H]7OC(C)=O)nn6)C(C)(C)C5CC[C@]43C)[C@H]2C1 (stereo partly specified) , please?
77

Recorded IC50 at 24 h for COC(=O)[C@@]1(C)CC[C@]2(C)CC[C@]3(C)C(=CC(=O)[C@@H]4[C@@]5(C)CC[C@H](OCc6cn(C7O[C@H](COC(C)=O)[C@@H](OC(C)=O)[C@H](OC(C)=O)[C@H]7OC(C)=O)nn6)C(C)(C)C5CC[C@]43C)[C@H]2C1 (stereo partly specified) , please?
87.8

Recorded IC50 at 24 h for CC(=O)O[C@H]1[C@H](C)OC(n2cc(COC(=O)[C@@]3(C)CC[C@]4(C)CC[C@]5(C)C(=CC(=O)[C@@H]6[C@@]7(C)CC[C@H](OC(=O)CCc8ccccc8)C(C)(C)C7CC[C@]65C)[C@H]4C3)nn2)C[C@@H]1OC(C)=O (stereo partly specified) , please?
406

Recorded IC50 at 24 h for COC(=O)[C@@]1(C)CC[C@]2(C)CC[C@]3(C)C(=CC(=O)[C@@H]4[C@@]5(C)CC[C@H](OCc6cn(C7O[C@H](COC(C)=O)[C@@H](OC(C)=O)[C@H](OC(C)=O)[C@@H]7OC(C)=O)nn6)C(C)(C)C5CC[C@]43C)[C@H]2C1 (stereo partly specified) , please?
65.3
